Attribution: the Human Domainome abundance scans (Beltran et al. 2025)

B1: POU domain, class 2, transcription factor 2, residues 200 to 269; numbered along this chain, P09086 (parent)
chain: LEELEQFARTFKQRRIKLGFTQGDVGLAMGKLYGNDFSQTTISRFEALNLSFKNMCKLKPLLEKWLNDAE

# Variants of: B1
# assay-protocol: abundance fitness (aPCA) (normalised: wild type 0, dead -1); higher = more abundant; growth selection in yeast, the domain comes from the species named
# condition-parameters: Homo sapiens
Could you label it class 1 if measured abundance fitness is -0.07 or higher, and class 0 otherwise?

mutations: T10K
assigned-category: class 1

mutations: E5A
assigned-category: class 1

mutations: R44Y
assigned-category: class 1

mutations: L4K
assigned-category: class 0

mutations: L32I
assigned-category: class 1

mutations: I42Q
assigned-category: class 0

Exercise: Is it the case that `M29I` has abundance fitness reaching or exceeding -0.07?
Solution: class 0

Exercise: Another variant to look at: `G23L`
Solution: class 1
